Listed binders paired with reported log10 of koff
Biological target: T1, recombinant human VEGF165 (human, UniProt P15692 27-191)
T1 construct: mature; Isoform VEGF165 of the entry; also called hVEGF165; hVEGF
T1 sequence (P15692 other isoform, or with tags, fused parts or gaps): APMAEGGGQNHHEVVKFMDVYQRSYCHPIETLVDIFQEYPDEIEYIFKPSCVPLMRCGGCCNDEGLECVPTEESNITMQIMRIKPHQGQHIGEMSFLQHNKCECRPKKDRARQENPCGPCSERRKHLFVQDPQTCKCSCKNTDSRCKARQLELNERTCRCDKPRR
Test: Biacore SPR, VEGF immobilized, pH 5
Measurement name: log10 of koff (log10 of the value in s⁻¹)

- Binder: "375-min (scFv, VL and VH tied by name; also called Protein Nr; 857) scFv: EIVMTQSPSTLSASVGDRVIITCQASENINIWLSWYQQKPGKAPKLLIYQASKLASGVPSRFSGSGSGAEFTLTISSLQPDDFATYYCQNNYSYNRYGAPFGQGTKLTVLGGGGGSGGGGSGGGGSGGGGSEVQLVESGGGLVQPGGSLRLSCAASGFSFTTTDYMCWVRQAPGKGLEWVSCILAGDGSTYYANWAKGRFTISRDNSKNTLYLQMNSLRAEDTAVYYCAKSDPASSWSFALWGQGTLVTVSS"
  Readout number: -2.30
- Binder: "534-max (scFv, VL and VH tied by name; also called EP534max; Protein Nr; 793) scFv: EIVMTQSPSTLSASVGDRVIITCQASQSINIWLSWYQQKPGKAPKLLIYKESTLASGVPSRFSGSGSGTEFTLTISSLQPDDFATYYCQNNYDSGNNGFPFGQGTKLTVLGGGGGSGGGGSGGGGSGGGGSEVQLVESGGGLVQPGGSLRLSCTASGFSLSYYYMSWVRQAPGKGLEWVGIIGPGDYTDYASWAKGRFTISKDTSKNTVYLQMNSLRAEDTAVYYCARGDDNSGWGEDIWGQGTLVTVSS"
  Readout number: -1.76
- Binder: "567-max (scFv, VL and VH tied by name; also called Protein Nr; 874) scFv: EIVMTQSPSTLSASVGDRVIITCQADQSIYIWLSWYQQKPGKAPKLLIYKASTLESGVPSRFSGSGSGTQFTLTISSLQPDDFATYYCQNNAHYSTNGGTFGQGTKLTVLGGGGGSGGGGSGGGGSGGGGSEVQLVESGGGLVQPGGSLRLSCSVSGFSLSDYYMCWVRQAPGKGLEWVGCLDYFGSTDDASWAKGRFTISKDTSKNTVYLQMNSLRAEDTAVYYCARTDDSRGWGLNIWGQGTLVTVSS"
  Readout number: -3.65
- Binder: "534-min C-His (scFv, VL and VH tied by name; His tag only named (C-His); also called Protein Nr; 807; not shown: C-terminal His tag) scFv: EIVMTQSPSTLSASVGDRVIITCQASQSINIWLSWYQQKPGKAPKLLIYKESTLASGVPSRFSGSGSGAEFTLTISSLQPDDFATYYCQNNYDSGNNGFPFGQGTKLTVLGGGGGSGGGGSGGGGSGGGGSEVQLVESGGGLVQPGGSLRLSCAASGFSLSYYYMSWVRQAPGKGLEWVSIIGPGDYTDYASWAKGRFTISRDNSKNTLYLQMNSLRAEDTAVYYCAKGDDNSGWGEDIWGQGTLVTVSS"
  Readout number: -2.04
- Binder: "375-max (scFv, VL and VH tied by name; also called Protein Nr; 873) scFv: EIVMTQSPSTLSASVGDRVIITCQASENINIWLSWYQQKPGKAPKLLIYQASKLASGVPSRFSGSGSGTQFTLTISSLQPDDFATYYCQNNYSYNRYGAPFGQGTKLTVLGGGGGSGGGGSGGGGSGGGGSEVQLVESGGGLVQPGGSLRLSCKASGFSFTTTDYMCWVRQAPGKGLEWVGCILAGDGSTYYANWAKGRFTGSKDTSKNTVYLQMNSLRAEDTAVYYCARSDPASSWSFALWGQGTLVTVSS"
  Readout number: -2.18
- Binder: "509-maxII (scFv, VH tied by name; also called Protein Nr) scFv: EIVMTQSPSTLSASVGDRVIITCQASQNIRIWLSWYQQKPGKAPKLLIYKASTLESGVPSRFSGSGSGTEFTLTISSLQPDDFATYYCQNNAHYSTNGGTFGQGTKLTVLGGGGGSGGGGSGGGGSGGGGSEVQLVESGGGLVQPGGSLRLSCTASGFSLSSYYMSWVRQAPGKGLEWVGILDYVGDTDYASWAKGRFTISKDASKNTVYLQMNSLRAEDTAVYYCARTDDSRGWGLNIWGQGTLVTVSS"
  Readout number: -2.55
- Binder: "578-max (scFv, also called EP578max; #821) scFv: EIVMTQSPSTLSASVGDRVIITCQASEIIHSWLAWYQQKPGKAPKLLIYLASTLASGVPSRFSGSGSGTQFTLTISSLQPDDFATYYCQNVYLASTNGANFGQGTKLTVLGGGGGSGGGGSGGGGSGGGGSEVQLVESGGGLVQPGGSLRLSCTASGFSLTDYYYMTWVRQAPGKGLEWVGFIDPDDDPYYATWAKGRFTISRDTSKNTVYLQMNSLRAEDTAVYYCAGGDHNSGWGLDIWGQGTLVTVSS"
  Readout number: -3.51
- Binder: "610-max (scFv, VL and VH tied by name; also called Protein Nr) scFv: EIVMTQSPSTLSASVGDRVIITCQASQSISSWLSWYQQKPGKAPKLLIYQASTLASGVPSRFSGSGSGTEFTLTISSLQPDDFATYYCQNNYGFRSYGGAFGQGTKLTVLGGGGGSGGGGSGGGGSGGGGSEVQLVESGGGLVQPGGSLRLSCTASGIDFSGAYYMGWVRQAPGKGLEWVGYIDYDGDRYYASWAKGRFTISKDTSKNTVYLQMNSLRAEDTAVYYCARSDYSSGWGTDIWGQGTLVTVSS"
  Readout number: -3.22
- Binder: "511-max (scFv, also called ESBA802) scFv: EIVMTQSPSTLSASVGDRVIITCQASQSINIWLSWYQQKPGKAPKLLIYRASTLASGVPSRFSGSGSGTEFTLTISSLQPDDFATYYCQANYAYSAGYGAAFGQGTKLTVLGGGGGSGGGGSGGGGSGGGGSEVQLVESGGGLVQPGGSLRLSCTVSGFSLNTYYMNWVRQAPGKGLEWVGIIAPDDTTYYASWAKSRSTISRDTSKNTVYLQMNSLRAEDTAVYYCARSGDTTAWGADIWGQGTLVTVSS"
  Readout number: -4.36
- Binder: "567-min (scFv, also called Protein Nr; 884) scFv: EIVMTQSPSTLSASVGDRVIITCQADQSIYIWLSWYQQKPGKAPKLLIYKASTLESGVPSRFSGSGSGAEFTLTISSLQPDDFATYYCQNNAHYSTNGGTFGQGTKLTVLGGGGGSGGGGSGGGGSGGGGSEVQLVESGGGLVQPGGSLRLSCAASGFSLSDYYMCWVRQAPGKGLEWVSCLDYFGSTDDASWAKGRFTISRDNSKNTLYLQMNSLRAEDTAVYYCAKTDDSRGWGLNIWGQGTLVTVSS"
  Readout number: -3.34

These measurements were taken from patent US20150274820A1.
